Biological target: MMP-9 (Homo sapiens, UniProt P14780)
Construct: gift of Prof; Gillian Murphy (Oncology Department, Cambridge University, UK)
Sequence (P14780 107-707 limits assumed): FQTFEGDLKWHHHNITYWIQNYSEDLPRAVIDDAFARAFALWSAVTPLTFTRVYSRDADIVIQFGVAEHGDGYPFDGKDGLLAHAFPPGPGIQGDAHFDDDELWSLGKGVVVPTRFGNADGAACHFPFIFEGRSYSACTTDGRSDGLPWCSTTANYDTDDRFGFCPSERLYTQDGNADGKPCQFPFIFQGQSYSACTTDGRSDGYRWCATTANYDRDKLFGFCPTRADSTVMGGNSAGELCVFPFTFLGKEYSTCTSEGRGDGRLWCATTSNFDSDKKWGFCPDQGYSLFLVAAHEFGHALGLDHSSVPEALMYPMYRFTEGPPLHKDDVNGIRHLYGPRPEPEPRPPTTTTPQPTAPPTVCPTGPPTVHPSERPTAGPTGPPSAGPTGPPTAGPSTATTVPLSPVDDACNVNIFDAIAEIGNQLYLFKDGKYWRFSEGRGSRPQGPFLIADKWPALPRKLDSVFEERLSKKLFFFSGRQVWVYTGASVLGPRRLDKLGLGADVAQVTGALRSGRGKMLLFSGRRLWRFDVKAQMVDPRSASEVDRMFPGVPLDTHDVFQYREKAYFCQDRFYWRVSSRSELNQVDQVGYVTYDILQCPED
Assay: In vitro fluorometric inhibition assay of MMPs: MMP-9
Assay type: biochemical
Details: Table III, cells without (*)
Procedure: Analysis of the In Vitro Inhibition Activity of Zinc Metalloproteinases: In Vitro Inhibition of MMMPs The human recombinant Progelatinase A (pro-MMP-2), B (pro-MMP-9), MMP-14cd and MMP-16cd, were provided by Prof. […] The inhibition activity of MMP was expressed in relative fluorescence unit (RFU). The percentage of inhibition was calculated using control reactions without inhibitor. […]
outcome.measure: IC50

COc1ccc(Oc2ccc(Sc3ccccc3CC(=O)NO)cc2)cc1 : 0.105 µM

// next entry
What does the record list as IC50 for COc1ccc(Oc2ccc(Sc3ccccc3CC(=O)O)cc2)cc1 ?
48.7 µM
